Listing of recorded Emax by entry.
Target: M2 muscarinic receptor (Homo sapiens)
Construct: expressed in transfected cells; host or cells: CHO (M2-CHO)
Sequence (P08172 1-466): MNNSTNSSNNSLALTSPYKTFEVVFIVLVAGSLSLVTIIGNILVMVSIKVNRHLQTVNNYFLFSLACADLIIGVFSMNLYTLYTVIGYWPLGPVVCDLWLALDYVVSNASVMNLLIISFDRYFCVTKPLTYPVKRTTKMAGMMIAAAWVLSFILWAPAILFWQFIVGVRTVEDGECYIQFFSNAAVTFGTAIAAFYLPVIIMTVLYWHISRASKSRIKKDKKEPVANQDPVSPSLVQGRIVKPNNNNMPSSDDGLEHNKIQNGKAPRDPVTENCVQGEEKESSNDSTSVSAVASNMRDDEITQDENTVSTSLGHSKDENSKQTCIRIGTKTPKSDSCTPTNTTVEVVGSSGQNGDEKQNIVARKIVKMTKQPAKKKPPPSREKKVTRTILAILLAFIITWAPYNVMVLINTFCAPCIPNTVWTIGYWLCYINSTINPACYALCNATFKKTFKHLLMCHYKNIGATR
Experiment: Functional mobilization of intracellular calcium (FLIPR) in CHO cells expressing M2
Assay type: cell-based
Details: CHO; 100% = maximum response obtained with the Carbachol control; read-out: M2 Efficacy
Method: Functional Mobilization of Intracellular Calcium to Determine Muscarinic Receptor Activity: […] Compounds are prepared at a 2× fold concentration in a 96-well plate (round bottom, Costar Corning cat#3656), by reconstituting the pre-spotted compounds in bath 1 containing 1 mM probenecid. […] In both assay modes, the fluorescence is recorded for 60 sec (excitation wavelength is […] and emission wavelength 540 nm) using the FLIPR 3 instrument. […]
EXPERIMENTAL READOUT: Emax

{"MOLECULE": "Cn1cnc(C(=O)N[C@H]2CCC3(CCN(CCC(C)(C)C)CC3)c3ccccc32)c1", "REPORTED RESULT": "< 25%"}
{"MOLECULE": "C[C@H](C(=O)N[C@H]1CCC2(CCN(CCC(C)(C)C)CC2)c2cc(F)ccc21)N1CCCC1=O", "REPORTED RESULT": "< 25%"}
{"MOLECULE": "COC(=O)N(C)[C@H]1CCC2(CCN(CCC(C)(C)C)CC2)c2ccccc21", "REPORTED RESULT": "< 25%"}
{"MOLECULE": "C[C@@H](O)CC(=O)N[C@H]1CCC2(CCN(CCC(C)(C)C)CC2)c2ccccc21", "REPORTED RESULT": "25 to 100%"}
{"MOLECULE": "C[C@@H](O)CC(=O)N[C@@H]1CCC2(CCN(CCC(C)(C)C)CC2)c2ccccc21", "REPORTED RESULT": "< 25%"}
{"MOLECULE": "CC(C)(C)CCN1CCC2(CC[C@@H](NC(=O)CC3CCCC3=O)c3ccc(F)cc32)CC1 (some centres unmarked)", "REPORTED RESULT": "< 25%"}
{"MOLECULE": "CC(=O)NCCC(=O)N[C@@H]1CCC2(CCN(CCC(C)(C)C)CC2)c2ccccc21", "REPORTED RESULT": "< 25%"}
{"MOLECULE": "Cn1cc(C(=O)N[C@H]2CCC3(CCN(CCC(C)(C)C)CC3)c3ccccc32)cn1", "REPORTED RESULT": "25 to 100%"}

---

Listing of recorded EC50 by entry.
Target: M2 muscarinic receptor (Homo sapiens, UniProt P08172)
Assay: Functional mobilization of intracellular calcium (FLIPR) in CHO cells expressing M2
Conditions: CHO cells expressing M2, FLIPR calcium

{"CHEMICAL STRUCTURE": "CC(=O)N(C(C)C)[C@H]1CCC2(CCN(CCC(C)(C)C)CC2)c2ccccc21", "EC50": "> 5 µM"}
{"CHEMICAL STRUCTURE": "CC(C)(C)CCN1CCC2(CC[C@@H](NC(=O)CC3CCOCC3)c3ccc(F)cc32)CC1", "EC50": "> 5 µM"}
{"CHEMICAL STRUCTURE": "Cc1cc(C(=O)N[C@H]2CCC3(CCN(CCC(C)(C)C)CC3)c3ccccc32)nn1C", "EC50": "> 5 µM"}
{"CHEMICAL STRUCTURE": "CCOC(=O)N[C@H]1CCC2(CCN(CCC(C)(C)C)CC2)c2ccccc21", "EC50": "< 2 µM"}

---

Target: M4 muscarinic receptor (Homo sapiens, UniProt P08173)
Construct: expressed in transfected cells; host or cells: CHO (M4-CHO)
Sequence (P08173 whole entry): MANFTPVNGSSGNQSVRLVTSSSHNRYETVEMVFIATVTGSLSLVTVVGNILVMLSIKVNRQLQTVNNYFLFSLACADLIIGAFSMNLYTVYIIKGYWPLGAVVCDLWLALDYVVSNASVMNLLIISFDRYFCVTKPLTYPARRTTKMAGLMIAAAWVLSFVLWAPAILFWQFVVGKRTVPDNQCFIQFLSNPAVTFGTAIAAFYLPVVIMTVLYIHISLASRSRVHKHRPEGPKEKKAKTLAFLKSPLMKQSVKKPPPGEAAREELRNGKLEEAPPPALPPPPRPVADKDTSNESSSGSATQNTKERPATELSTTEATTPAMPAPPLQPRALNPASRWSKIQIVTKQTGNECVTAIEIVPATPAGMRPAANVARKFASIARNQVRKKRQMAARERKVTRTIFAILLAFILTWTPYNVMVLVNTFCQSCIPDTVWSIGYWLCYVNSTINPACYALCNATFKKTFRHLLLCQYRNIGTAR
Test: Functional mobilization of intracellular calcium (FLIPR) in CHO cells expressing M4
Type: cell-based
Settings: CHO; 100% efficacy = maximum response obtained with the Carbachol control
EXPERIMENTAL READOUT: Emax

{"CHEMICAL STRUCTURE": "CC(=O)N[C@H]1CC2(CCN(CC(=O)O)CC2)c2ccccc21", "MEASURED ON": "M4 muscarinic receptor (Homo sapiens, UniProt P08173)", "REPORTED RESULT": "< 25%"}
{"CHEMICAL STRUCTURE": "CC(=O)N(C)[C@H]1CCC2(CCN(CCC(C)(C)C)CC2)c2cc(F)ccc21", "MEASURED ON": "M4 muscarinic receptor (Homo sapiens, UniProt P08173)", "REPORTED RESULT": "25 to 100%"}
{"CHEMICAL STRUCTURE": "CCN(C(=O)Cc1ccccn1)[C@H]1CCC2(CCN(CCC(C)(C)C)CC2)c2ccccc21", "MEASURED ON": "M4 muscarinic receptor (Homo sapiens, UniProt P08173)", "REPORTED RESULT": "25 to 100%"}
{"CHEMICAL STRUCTURE": "C/C=C(\\C)CN1CCC2(CC1)C[C@H](NC(C)=O)c1ccccc12", "MEASURED ON": "M4 muscarinic receptor (Homo sapiens, UniProt P08173)", "REPORTED RESULT": "< 25%"}
{"CHEMICAL STRUCTURE": "C=CCCCN1CCC2(CC1)C[C@H](NC(C)=O)c1ccccc12", "MEASURED ON": "M4 muscarinic receptor (Homo sapiens, UniProt P08173)", "REPORTED RESULT": "25 to 100%"}
{"CHEMICAL STRUCTURE": "CC(=O)N[C@H]1CCC2(CCN(CCC(C)(C)C)CC2)c2ccccc21", "MEASURED ON": "M4 muscarinic receptor (Homo sapiens, UniProt P08173)", "REPORTED RESULT": "25 to 100%"}
{"CHEMICAL STRUCTURE": "CC(=O)N[C@H]1CC2(CCN(CCC(C)C)CC2)c2ccccc21", "MEASURED ON": "M4 muscarinic receptor (Homo sapiens, UniProt P08173)", "REPORTED RESULT": "25 to 100%"}
{"CHEMICAL STRUCTURE": "CCC(CC)(CCC#N)CN1CCC2(CC1)C[C@H](NC(C)=O)c1ccccc12", "MEASURED ON": "M4 muscarinic receptor (Homo sapiens, UniProt P08173)", "REPORTED RESULT": "25 to 100%"}

---

Listing of recorded Emax by entry.
Biological target: M1 muscarinic receptor (Homo sapiens)
Construct: expressed in transfected cells; host or cells: CHO (M1-CHO)
Sequence (P11229 whole entry): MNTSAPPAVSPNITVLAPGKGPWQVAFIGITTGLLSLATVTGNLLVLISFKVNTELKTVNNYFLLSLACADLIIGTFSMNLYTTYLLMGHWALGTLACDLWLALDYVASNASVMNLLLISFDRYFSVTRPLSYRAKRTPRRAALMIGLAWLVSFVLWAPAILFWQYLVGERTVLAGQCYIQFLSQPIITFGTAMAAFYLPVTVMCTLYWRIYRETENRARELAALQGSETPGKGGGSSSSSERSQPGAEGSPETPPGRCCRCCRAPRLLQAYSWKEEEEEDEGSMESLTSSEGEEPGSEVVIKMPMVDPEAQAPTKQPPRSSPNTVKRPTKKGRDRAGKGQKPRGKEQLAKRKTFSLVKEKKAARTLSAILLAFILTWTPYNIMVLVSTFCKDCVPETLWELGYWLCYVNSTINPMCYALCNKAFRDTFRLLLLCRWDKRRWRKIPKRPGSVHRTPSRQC
Test: Functional mobilization of intracellular calcium (FLIPR) in CHO cells expressing M1
Assay type: cell-based
Conditions: CHO; 100% efficacy = maximum response obtained with the Carbachol control
EXPERIMENTAL READOUT: Emax

{"MOLECULE": "CC(=O)N[C@H]1CC2(CCN(CCC(C)C)CC2)c2ccccc21", "MEASURED ON": "M1 muscarinic receptor (Homo sapiens)", "EXPERIMENTAL READOUT": "Emax", "REPORTED RESULT": "25 to 100%"}
{"MOLECULE": "CC(C)CCN1CCC2(CC1)C[C@H](NC(=O)N(C)C)c1ccccc12", "MEASURED ON": "M1 muscarinic receptor (Homo sapiens)", "EXPERIMENTAL READOUT": "Emax", "REPORTED RESULT": "< 25%"}
{"MOLECULE": "CC(=O)NC1CC2(CCN(C(C)C(C)C)CC2)c2ccccc21 (centres unmarked)", "MEASURED ON": "M1 muscarinic receptor (Homo sapiens)", "EXPERIMENTAL READOUT": "Emax", "REPORTED RESULT": "25 to 100%"}
{"MOLECULE": "CC(C)(C)CCN1CCC2(CC[C@H](NC(=O)C3CCOCC3)c3ccc(F)cc32)CC1", "MEASURED ON": "M1 muscarinic receptor (Homo sapiens)", "EXPERIMENTAL READOUT": "Emax", "REPORTED RESULT": "25 to 100%"}
{"MOLECULE": "CC(=O)N(C)[C@H]1CCC2(CCN(CCC(C)(C)C)CC2)c2cc(F)ccc21", "MEASURED ON": "M1 muscarinic receptor (Homo sapiens)", "EXPERIMENTAL READOUT": "Emax", "REPORTED RESULT": "25 to 100%"}
{"MOLECULE": "CC(C)(C)CCN1CCC2(CC[C@H](NC(=O)C(F)(F)F)c3ccccc32)CC1", "MEASURED ON": "M1 muscarinic receptor (Homo sapiens)", "EXPERIMENTAL READOUT": "Emax", "REPORTED RESULT": "25 to 100%"}
{"MOLECULE": "CCN(C(=O)CCOC)[C@H]1CCC2(CCN(CCC(C)(C)C)CC2)c2ccccc21", "MEASURED ON": "M1 muscarinic receptor (Homo sapiens)", "EXPERIMENTAL READOUT": "Emax", "REPORTED RESULT": "25 to 100%"}
{"MOLECULE": "CC(C)(C)CCN1CCC2(CC1)C[C@H](NC(=O)C1CCCC1)c1ccccc12", "MEASURED ON": "M1 muscarinic receptor (Homo sapiens)", "EXPERIMENTAL READOUT": "Emax", "REPORTED RESULT": "< 25%"}
